Quick list: IC50 per entry.
Molecular target: rat brain N-type calcium channel subunits (α1B+α2δ+β1b cDNA subunits) (Rattus norvegicus, UniProt Q02294)
Construct: expressed in transfected cells; host or cells: HEK 293
Sequence (Q02294 whole entry): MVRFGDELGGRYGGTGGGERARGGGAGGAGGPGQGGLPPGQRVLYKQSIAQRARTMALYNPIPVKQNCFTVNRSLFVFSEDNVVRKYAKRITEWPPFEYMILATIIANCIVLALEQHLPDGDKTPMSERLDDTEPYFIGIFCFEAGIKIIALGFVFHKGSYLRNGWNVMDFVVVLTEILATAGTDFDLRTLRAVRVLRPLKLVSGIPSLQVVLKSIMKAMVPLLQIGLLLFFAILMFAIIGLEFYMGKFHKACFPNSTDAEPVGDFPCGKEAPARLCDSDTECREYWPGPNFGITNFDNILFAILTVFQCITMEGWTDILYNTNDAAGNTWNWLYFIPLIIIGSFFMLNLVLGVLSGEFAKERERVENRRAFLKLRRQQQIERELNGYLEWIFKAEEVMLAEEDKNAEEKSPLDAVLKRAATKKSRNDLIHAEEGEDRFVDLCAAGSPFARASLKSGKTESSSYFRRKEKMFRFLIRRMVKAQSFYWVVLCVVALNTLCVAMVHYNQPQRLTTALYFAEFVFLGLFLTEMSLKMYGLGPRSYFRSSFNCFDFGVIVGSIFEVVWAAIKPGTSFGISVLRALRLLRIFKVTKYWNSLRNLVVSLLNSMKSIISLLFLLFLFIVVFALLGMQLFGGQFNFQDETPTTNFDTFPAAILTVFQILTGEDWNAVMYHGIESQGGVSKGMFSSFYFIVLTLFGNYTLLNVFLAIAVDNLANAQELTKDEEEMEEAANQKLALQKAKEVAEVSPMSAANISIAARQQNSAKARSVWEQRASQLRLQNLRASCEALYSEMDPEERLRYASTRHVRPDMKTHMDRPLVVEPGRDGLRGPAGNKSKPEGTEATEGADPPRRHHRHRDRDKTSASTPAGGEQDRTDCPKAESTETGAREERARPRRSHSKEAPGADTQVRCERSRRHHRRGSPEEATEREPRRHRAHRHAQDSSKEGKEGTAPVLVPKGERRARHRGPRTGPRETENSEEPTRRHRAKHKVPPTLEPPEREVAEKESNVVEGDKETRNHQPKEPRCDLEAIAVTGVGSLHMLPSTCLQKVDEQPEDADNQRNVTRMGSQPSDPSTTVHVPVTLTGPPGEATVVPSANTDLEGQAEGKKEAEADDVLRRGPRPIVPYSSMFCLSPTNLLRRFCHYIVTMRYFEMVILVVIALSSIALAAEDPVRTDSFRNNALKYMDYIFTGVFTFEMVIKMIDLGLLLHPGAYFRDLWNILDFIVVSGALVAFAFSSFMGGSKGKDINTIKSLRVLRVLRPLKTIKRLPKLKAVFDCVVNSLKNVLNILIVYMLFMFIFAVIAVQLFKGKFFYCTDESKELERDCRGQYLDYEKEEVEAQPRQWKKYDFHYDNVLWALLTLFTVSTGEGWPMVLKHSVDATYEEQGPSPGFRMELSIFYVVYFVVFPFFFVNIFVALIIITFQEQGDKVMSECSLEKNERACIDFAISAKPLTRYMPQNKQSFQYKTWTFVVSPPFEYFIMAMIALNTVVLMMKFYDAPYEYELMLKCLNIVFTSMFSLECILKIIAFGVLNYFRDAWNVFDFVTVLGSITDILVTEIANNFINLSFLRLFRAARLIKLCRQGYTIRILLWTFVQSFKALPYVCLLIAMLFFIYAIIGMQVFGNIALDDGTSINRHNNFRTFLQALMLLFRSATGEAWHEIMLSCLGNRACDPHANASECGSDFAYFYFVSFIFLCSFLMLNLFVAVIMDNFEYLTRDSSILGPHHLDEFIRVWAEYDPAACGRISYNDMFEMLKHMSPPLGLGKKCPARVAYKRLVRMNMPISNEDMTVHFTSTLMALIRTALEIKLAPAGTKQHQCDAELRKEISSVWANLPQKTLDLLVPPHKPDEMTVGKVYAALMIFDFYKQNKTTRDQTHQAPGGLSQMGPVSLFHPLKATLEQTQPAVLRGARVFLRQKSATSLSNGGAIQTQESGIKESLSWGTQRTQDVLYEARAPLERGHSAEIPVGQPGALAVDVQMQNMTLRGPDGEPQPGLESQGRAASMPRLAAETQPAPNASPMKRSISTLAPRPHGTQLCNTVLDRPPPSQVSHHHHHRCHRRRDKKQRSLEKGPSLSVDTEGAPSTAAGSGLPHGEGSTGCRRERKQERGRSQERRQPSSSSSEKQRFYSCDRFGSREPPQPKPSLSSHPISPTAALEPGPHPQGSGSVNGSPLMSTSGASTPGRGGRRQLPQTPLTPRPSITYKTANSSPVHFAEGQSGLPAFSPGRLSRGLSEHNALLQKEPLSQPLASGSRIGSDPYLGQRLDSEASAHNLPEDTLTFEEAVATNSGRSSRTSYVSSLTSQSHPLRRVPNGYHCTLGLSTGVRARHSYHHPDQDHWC
Sequence (P54290 25-944 partner limits assumed): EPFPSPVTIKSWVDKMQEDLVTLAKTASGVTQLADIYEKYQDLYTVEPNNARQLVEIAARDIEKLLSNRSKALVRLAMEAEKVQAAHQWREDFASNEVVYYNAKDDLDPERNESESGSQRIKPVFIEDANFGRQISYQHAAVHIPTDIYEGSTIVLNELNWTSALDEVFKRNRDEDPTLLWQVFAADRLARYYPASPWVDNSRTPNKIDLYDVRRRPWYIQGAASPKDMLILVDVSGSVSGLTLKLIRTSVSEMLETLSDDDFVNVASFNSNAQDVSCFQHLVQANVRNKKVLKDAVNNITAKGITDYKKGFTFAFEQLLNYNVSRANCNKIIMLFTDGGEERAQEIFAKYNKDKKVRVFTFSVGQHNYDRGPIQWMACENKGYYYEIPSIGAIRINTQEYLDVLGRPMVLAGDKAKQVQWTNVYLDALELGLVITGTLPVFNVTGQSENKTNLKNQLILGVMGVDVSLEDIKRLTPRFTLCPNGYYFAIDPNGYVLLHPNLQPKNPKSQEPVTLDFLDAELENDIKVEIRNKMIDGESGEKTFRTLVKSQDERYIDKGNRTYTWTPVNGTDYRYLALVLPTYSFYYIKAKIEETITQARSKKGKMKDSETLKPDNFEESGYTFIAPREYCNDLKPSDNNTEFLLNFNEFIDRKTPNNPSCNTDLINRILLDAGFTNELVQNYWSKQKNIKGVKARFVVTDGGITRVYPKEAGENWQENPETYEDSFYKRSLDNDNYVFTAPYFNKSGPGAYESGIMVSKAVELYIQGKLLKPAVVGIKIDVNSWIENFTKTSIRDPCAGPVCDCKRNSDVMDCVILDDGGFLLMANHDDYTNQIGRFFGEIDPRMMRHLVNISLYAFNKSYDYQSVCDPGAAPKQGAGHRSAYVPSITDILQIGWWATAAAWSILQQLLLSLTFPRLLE
Sequence (P54290 945-1091 partner limits assumed): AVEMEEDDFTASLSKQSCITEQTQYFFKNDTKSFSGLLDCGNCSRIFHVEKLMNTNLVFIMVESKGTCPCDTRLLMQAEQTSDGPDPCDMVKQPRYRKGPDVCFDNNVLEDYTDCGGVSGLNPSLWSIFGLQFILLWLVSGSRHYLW
Sequence (P54283 whole entry partner): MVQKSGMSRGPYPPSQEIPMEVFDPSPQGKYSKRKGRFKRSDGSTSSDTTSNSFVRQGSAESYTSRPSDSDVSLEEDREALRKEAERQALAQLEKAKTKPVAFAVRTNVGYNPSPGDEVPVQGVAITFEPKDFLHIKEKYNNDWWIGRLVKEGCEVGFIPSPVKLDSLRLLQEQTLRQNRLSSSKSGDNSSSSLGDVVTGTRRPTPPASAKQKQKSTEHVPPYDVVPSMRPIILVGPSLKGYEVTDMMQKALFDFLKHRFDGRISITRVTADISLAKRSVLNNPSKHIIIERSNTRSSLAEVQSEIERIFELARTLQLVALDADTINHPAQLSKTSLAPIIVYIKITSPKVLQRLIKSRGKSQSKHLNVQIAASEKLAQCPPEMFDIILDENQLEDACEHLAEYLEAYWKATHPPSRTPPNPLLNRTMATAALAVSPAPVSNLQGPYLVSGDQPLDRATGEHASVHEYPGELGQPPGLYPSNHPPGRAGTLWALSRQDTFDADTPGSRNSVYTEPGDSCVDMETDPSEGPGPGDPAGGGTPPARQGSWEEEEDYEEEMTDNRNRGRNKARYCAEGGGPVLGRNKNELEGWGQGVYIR
Test: N-type calcium channel block, whole cell patch clamp in transfected HEK 293 cells
Assay type: cell-based
Details: −50 mV, read-out: IC50 @ −50 mV
Description: N-type calcium channel blocking activity was assayed in human embryonic kidney cells, HEK 293, stably transfected with the rat brain N-type calcium channel subunits (α1B+α2δ+β1b cDNA subunits). […] Whole cell patch clamp experiments were performed using an Axopatch 200B amplifier (Axon Instruments, Burlingame, Calif.) linked to a personal computer equipped with pCLAMP software. […] Data were analyzed using Clampfit (Axon Instruments) and SigmaPlot 4.0 (Jandel Scientific).
Write the number in nM without appending the unit.

>  <molecule>
O=C(CN1CCN(C(c2ccc(F)cc2)c2ccc(F)cc2)CC1)Nc1nc2ccccc2s1 [Compound 17]

>  <resultUnits>
nM

>  <IC50>
530

$$$$
>  <molecule>
Cc1ccc(-c2csc(NC(=O)CN3CCN(C(c4ccccc4)c4ccccc4)CC3)n2)cc1 [Compound 9]

>  <resultUnits>
nM

>  <IC50>
2500

$$$$
>  <molecule>
O=C(CN1CCN(C(c2ccccc2)c2ccccc2)CC1)Nc1nc2ccccc2[nH]1 [Compound 14]

>  <resultUnits>
nM

>  <IC50>
250

$$$$

Here is another molecule to look at.
Input line: Looking for the measured IC50 of O=C(CN1CCN(C(c2ccc(F)cc2)c2ccc(F)cc2)CC1)Nc1nc2ccc(Cl)cc2s1 [Compound 12] , can you help?
Output line: 2560

---

Target: rat brain N-type calcium channel subunits (α1B+α2δ+β1b cDNA subunits) (Rattus norvegicus)
Construct: expressed in transfected cells; host or cells: HEK 293
Assay: N-type calcium channel block, whole cell patch clamp in transfected HEK 293 cells
Format: cell-based
Details: −50 mV, read-out: IC50 @ −50 mV
Protocol: N-type calcium channel blocking activity was assayed in human embryonic kidney cells, HEK 293, stably transfected with the rat brain N-type calcium channel subunits (α1B+α2δ+β1b cDNA subunits). […] Whole cell patch clamp experiments were performed using an Axopatch 200B amplifier (Axon Instruments, Burlingame, Calif.) linked to a personal computer equipped with pCLAMP software. […] Data were analyzed using Clampfit (Axon Instruments) and SigmaPlot 4.0 (Jandel Scientific).
pIC50: −log10 of the molar value.
Assign TRUE whenever pIC50 does not fall below 6; assign FALSE whenever it does.

Input line: Given the entry O=C(CN1CCN(C(c2ccccc2)c2ccccc2)CC1)Nc1nc2ccc(F)cc2s1 , answer whether its pIC50 meets or surpasses 6.
Output line: TRUE

Input line: Item COc1ccc2nc(NC(=O)CN3CCN(C(c4ccccc4)c4ccccc4)CC3)sc2c1 with pIC50 of 6 or above?
Output line: FALSE

Input line: Given the entry O=C(CN1CCN(C(c2ccccc2)c2ccccc2)CC1)Nc1nc2ccccc2s1 , answer whether its pIC50 meets or surpasses 6.
Output line: TRUE

---

Biological target: rat brain N-type calcium channel subunits (α1B+α2δ+β1b cDNA subunits) (Rattus norvegicus, UniProt Q02294)
Construct: expressed in transfected cells; host or cells: HEK 293
Assay: N-type calcium channel block, whole cell patch clamp in transfected HEK 293 cells
Assay type: cell-based
Conditions: −50 mV, read-out: IC50 @ −50 mV
propertyLabel: pIC50
pIC50 field: float, defined as -log10 of concentration (mol/L).

>  <compound>
O=C(CN1CCN(C(c2ccccc2)c2ccccc2)CC1)Nc1nc2ccc(Cl)cc2s1 [Compound 11]

>  <pIC50>
5.80

$$$$
>  <compound>
O=C(CN1CCN(C(c2ccc(F)cc2)c2ccc(F)cc2)CC1)Nc1ncc(Cl)s1 [Compound 8]

>  <pIC50>
6.28

$$$$
>  <compound>
O=C(CN1CCN(C(c2ccccc2)c2ccccc2)CC1)Nc1nc2ccc(OC(F)(F)F)cc2s1 [Compound 18]

>  <pIC50>
5.94

$$$$
>  <compound>
Cc1ccc(-c2csc(NC(=O)CN3CCN(C(c4ccc(F)cc4)c4ccc(F)cc4)CC3)n2)cc1 [Compound 10]

>  <pIC50>
5.72

$$$$

Input line: Requested read-out: pIC50. Entry: CS(=O)(=O)c1ccc2nc(NC(=O)CN3CCN(C(c4ccccc4)c4ccccc4)CC3)sc2c1 [Compound 20]
Output line: 5.79

Input line: Dear colleague, I am looking for the recorded pIC50 of the following compound: O=C(CN1CCN(C(c2ccc(F)cc2)c2ccc(F)cc2)CC1)Nc1nc2ccc(F)cc2s1 [Compound 2]
Output line: 6.31
